// SPOT peptide array binding signal intensity lookup, one value per entry
target: CaFus1; assay: SPOT peptide array binding signal intensity (averaged, normalized) (arbitrary units (background-subtracted, floor 0; scale differs between SH3 domains)); higher = stronger binding of the SH3 domain to the peptide

Below: 5 binders and their reported SPOT peptide array binding signal intensity.
1) NLDRSKISLPDFDDE	283
2) LKVTPGRRAPTISKI	≤ 0
3) RKRAPTPPAPSRSEK	106
4) TKIRRRPQQPLTDFT	338
5) APKREAPKPPANTSP	18

Which value of SPOT peptide array binding signal intensity has been reported for `KFIPSRPAPKPPSSA` in the records? 75

Same question, `NFKRLLPRDPSEKSS` this time 970

Cool, now `AERNYAPRLPRRETS` 23.8

Please answer likewise for `TPTSGPPLLPPRNTM` 25

# repeat for `VRVKKRPLIRPLNSS` 381

Would you kindly repeat that for `KNRKNLPTIPIRLSG` ? 382

Lookup `MKRSRPSRSIPYTTP` 334
